- test-summary: Long-term stability in spiked pooled human plasma
- condition: validation standard ULOV
metric-name: Long-term stability, 1 month, -20°C Accuracy [%] (%)
Numbers only, in %.

Some compounds with recorded Long-term stability, 1 month, -20°C Accuracy [%]:
O=C(c1ccc(F)c(F)c1Nc1ccc(I)cc1F)N1CC(O)([C@@H]2CCCCN2)C1 = 100.6
C=CC(=O)Nc1cc(Nc2nccc(-c3cn(C)c4ccccc34)n2)c(OC)cc1N(C)CCN(C)C = 92.3
CN(C)C/C=C/C(=O)Nc1cc2c(Nc3ccc(F)c(Cl)c3)ncnc2cc1O[C@H]1CCOC1 = 86.5
Cc1cc(Nc2ncc(Cl)c(Nc3ccccc3S(=O)(=O)C(C)C)n2)c(OC(C)C)cc1C1CCNCC1 = 97.3
COc1cc2nccc(Oc3ccc(NC(=O)NC4CC4)c(Cl)c3)c2cc1C(N)=O = 96.4
Cc1ccc(Nc2nccc(N(C)c3ccc4c(C)n(C)nc4c3)n2)cc1S(N)(=O)=O = 97.3

// below: Long-term stability, 1 month, -20°C Accuracy [%] requested for another compound
Recorded result, `CO[C@@H]1[C@H](N(C)C(=O)c2ccccc2)C[C@H]2O[C@]1(C)n1c3ccccc3c3c4c(c5c6ccccc6n2c5c31)C(=O)NC4` , Long-term stability, 1 month, -20°C Accuracy [%]: 107.3
